- Tested on: LCLC-97TM1
- METHOD SUMMARY: relative viability (nuclei count vs DMSO), 5 days (fraction); higher = more cells survive
- CONDITION: first compound 2 µM

COMPOUND: Cc1csc(=NC2CCCCC2)n1/N=C/c1ccc(O)c(O)c1O [MIM1] + CS(=O)(=O)N1CCN(Cc2cc3nc(-c4cccc5[nH]ncc45)nc(N4CCOCC4)c3s2)CC1 [Pictilisib] (partner 1 µM)
TEST SYSTEM: LCLC-97TM1
relative viability: 0.228

COMPOUND: Cc1csc(=NC2CCCCC2)n1/N=C/c1ccc(O)c(O)c1O [MIM1] + C[C@]1(O)C[C@@H](c2nc(-c3ccc4ccc(-c5ccccc5)nc4c3)c3c(N)nccn32)C1 [Linsitinib] (partner 1 µM)
TEST SYSTEM: LCLC-97TM1
relative viability: 0.166

COMPOUND: CN1CCN(CCOc2cc(OC3CCOCC3)c3c(Nc4c(Cl)ccc5c4OCO5)ncnc3c2)CC1 [Saracatinib] + NC(=O)Nc1cc(-c2cccc(F)c2)sc1C(=O)N[C@H]1CCCNC1 [AZD7762] (partner 0.2 µM)
TEST SYSTEM: LCLC-97TM1
relative viability: 0.265

* * *

Below, each entry is listed with its recorded relative viability.
- Test system: HCC-366
- METHOD SUMMARY: relative viability (nuclei count vs DMSO), 5 days (fraction); higher = more cells survive
- CONDITION: first compound 0.01 µM
REPORTED ENDPOINT: relative viability

MOLECULE: Cc1cn(-c2cc(NC(=O)c3ccc(C)c(Nc4nccc(-c5cccnc5)n4)c3)cc(C(F)(F)F)c2)cn1 [Nilotinib] + Cc1nc(Nc2ncc(C(=O)Nc3c(C)cccc3Cl)s2)cc(N2CCN(CCO)CC2)n1 [Dasatinib] (partner 0.075 µM)
TEST SYSTEM: HCC-366
REPORTED VALUE: 0.958
//
MOLECULE: Cc1cn(-c2cc(NC(=O)c3ccc(C)c(Nc4nccc(-c5cccnc5)n4)c3)cc(C(F)(F)F)c2)cn1 [Nilotinib] + Cc1cc(Nc2cc(N3CCN(C)CC3)nc(Sc3ccc(NC(=O)C4CC4)cc3)n2)n[nH]1 [Tozasertib] (partner 0.1 µM)
TEST SYSTEM: HCC-366
REPORTED VALUE: 0.0646
//
MOLECULE: Cc1cn(-c2cc(NC(=O)c3ccc(C)c(Nc4nccc(-c5cccnc5)n4)c3)cc(C(F)(F)F)c2)cn1 [Nilotinib] + Cc1nc(NC(=O)N2CCC[C@H]2C(N)=O)sc1-c1ccnc(C(C)(C)C(F)(F)F)c1 [Alpelisib] (partner 2 µM)
TEST SYSTEM: HCC-366
REPORTED VALUE: 0.428
//
MOLECULE: Cc1cn(-c2cc(NC(=O)c3ccc(C)c(Nc4nccc(-c5cccnc5)n4)c3)cc(C(F)(F)F)c2)cn1 [Nilotinib] + CC1(C)CCC(c2ccc(Cl)cc2)=C(CN2CCN(c3ccc(C(=O)NS(=O)(=O)c4ccc(N[C@H](CCN5CCOCC5)CSc5ccccc5)c(S(=O)(=O)C(F)(F)F)c4)cc3)CC2)C1 [Navitoclax] (partner 0.5 µM)
TEST SYSTEM: HCC-366
REPORTED VALUE: 1.62

* * *

- Test system: NCI-H661
- METHOD SUMMARY: relative viability (nuclei count vs DMSO), 5 days (fraction); higher = more cells survive
- CONDITION: first compound 2.53 µM
Below, each entry is listed with its recorded relative viability.

COMPOUND: Nc1cccc2c1CN(C1CCC(=O)NC1=O)C2=O (stereo not drawn) [Lenalidomide] + CS(=O)(=O)N1CCN(Cc2cc3nc(-c4cccc5[nH]ncc45)nc(N4CCOCC4)c3s2)CC1 [Pictilisib] (partner 1 µM)
relative viability: 0.44
//
COMPOUND: Nc1cccc2c1CN(C1CCC(=O)NC1=O)C2=O (stereo not drawn) [Lenalidomide] + Cc1cc(Nc2cc(N3CCN(C)CC3)nc(Sc3ccc(NC(=O)C4CC4)cc3)n2)n[nH]1 [Tozasertib] (partner 0.1 µM)
relative viability: 0.335
//
COMPOUND: Nc1cccc2c1CN(C1CCC(=O)NC1=O)C2=O (stereo not drawn) [Lenalidomide] + CC(=O)c1c(C)c2cnc(Nc3ccc(N4CCNCC4)cn3)nc2n(C2CCCC2)c1=O [Palbociclib] (partner 0.5 µM)
relative viability: 0.348

* * *

- Tested on: LU99A
- METHOD SUMMARY: relative viability (nuclei count vs DMSO), 5 days (fraction); higher = more cells survive
- CONDITION: first compound 0.003162 µM

COMPOUND: Cc1cn(-c2cc(NC(=O)c3ccc(C)c(Nc4nccc(-c5cccnc5)n4)c3)cc(C(F)(F)F)c2)cn1 [Nilotinib] + Nc1nc2[nH]cc(CCc3ccc(C(=O)N[C@@H](CCC(=O)O)C(=O)O)cc3)c2c(=O)[nH]1 [Pemetrexed] (partner 0.2 µM)
relative viability: 0.202
--
COMPOUND: Cc1cn(-c2cc(NC(=O)c3ccc(C)c(Nc4nccc(-c5cccnc5)n4)c3)cc(C(F)(F)F)c2)cn1 [Nilotinib] + O=C(c1cc(Cc2n[nH]c(=O)c3ccccc23)ccc1F)N1CCN(C(=O)C2CC2)CC1 [Olaparib] (partner 8 µM)
relative viability: 0.201

* * *

Below, each entry is listed with its recorded relative viability.
- System: NCI-H1355
- METHOD SUMMARY: relative viability (nuclei count vs DMSO), 5 days (fraction); higher = more cells survive
- CONDITION: first compound 20 µM

COMPOUND: Cc1csc(=NC2CCCCC2)n1/N=C/c1ccc(O)c(O)c1O [MIM1] + NC(=O)Nc1cc(-c2cccc(F)c2)sc1C(=O)N[C@H]1CCCNC1 [AZD7762] (partner 0.2 µM)
relative viability: 0.673

COMPOUND: Cc1csc(=NC2CCCCC2)n1/N=C/c1ccc(O)c(O)c1O [MIM1] + Cc1cc(Nc2cc(N3CCN(C)CC3)nc(Sc3ccc(NC(=O)C4CC4)cc3)n2)n[nH]1 [Tozasertib] (partner 0.1 µM)
relative viability: 0.3

COMPOUND: Cc1csc(=NC2CCCCC2)n1/N=C/c1ccc(O)c(O)c1O [MIM1] + Nc1nc2[nH]cc(CCc3ccc(C(=O)N[C@@H](CCC(=O)O)C(=O)O)cc3)c2c(=O)[nH]1 [Pemetrexed] (partner 0.2 µM)
relative viability: 0.616

COMPOUND: Cc1csc(=NC2CCCCC2)n1/N=C/c1ccc(O)c(O)c1O [MIM1] + Cc1nc(Nc2ncc(C(=O)Nc3c(C)cccc3Cl)s2)cc(N2CCN(CCO)CC2)n1 [Dasatinib] (partner 0.075 µM)
relative viability: 0.391

COMPOUND: Cc1csc(=NC2CCCCC2)n1/N=C/c1ccc(O)c(O)c1O [MIM1] + O=C(c1cc(Cc2n[nH]c(=O)c3ccccc23)ccc1F)N1CCN(C(=O)C2CC2)CC1 [Olaparib] (partner 8 µM)
relative viability: 0.297

COMPOUND: Cc1csc(=NC2CCCCC2)n1/N=C/c1ccc(O)c(O)c1O [MIM1] + CC1(C)CCC(c2ccc(Cl)cc2)=C(CN2CCN(c3ccc(C(=O)NS(=O)(=O)c4ccc(N[C@H](CCN5CCOCC5)CSc5ccccc5)c(S(=O)(=O)C(F)(F)F)c4)cc3)CC2)C1 [Navitoclax] (partner 0.5 µM)
relative viability: 0.95

COMPOUND: Cc1csc(=NC2CCCCC2)n1/N=C/c1ccc(O)c(O)c1O [MIM1] + CS(=O)(=O)N1CCN(Cc2cc3nc(-c4cccc5[nH]ncc45)nc(N4CCOCC4)c3s2)CC1 [Pictilisib] (partner 1 µM)
relative viability: 0.234

COMPOUND: Cc1csc(=NC2CCCCC2)n1/N=C/c1ccc(O)c(O)c1O [MIM1] + C[C@]1(O)C[C@@H](c2nc(-c3ccc4ccc(-c5ccccc5)nc4c3)c3c(N)nccn32)C1 [Linsitinib] (partner 1 µM)
relative viability: 0.879

COMPOUND: Cc1csc(=NC2CCCCC2)n1/N=C/c1ccc(O)c(O)c1O [MIM1] + CS(=O)(=O)CCNCc1ccc(-c2ccc3ncnc(Nc4ccc(OCc5cccc(F)c5)c(Cl)c4)c3c2)o1 [Lapatinib] (partner 2 µM)
relative viability: 0.483

* * *

- System: NCI-H1650
- METHOD SUMMARY: relative viability (nuclei count vs DMSO), 5 days (fraction); higher = more cells survive
- CONDITION: first compound 0.001 µM
Below, each entry is listed with its recorded relative viability.

COMPOUND: Cc1cn(-c2cc(NC(=O)c3ccc(C)c(Nc4nccc(-c5cccnc5)n4)c3)cc(C(F)(F)F)c2)cn1 [Nilotinib] + Cc1nc(Nc2ncc(C(=O)Nc3c(C)cccc3Cl)s2)cc(N2CCN(CCO)CC2)n1 [Dasatinib] (partner 0.075 µM)
TEST SYSTEM: NCI-H1650
relative viability: 0.335

COMPOUND: Cc1cn(-c2cc(NC(=O)c3ccc(C)c(Nc4nccc(-c5cccnc5)n4)c3)cc(C(F)(F)F)c2)cn1 [Nilotinib] + Nc1nc2[nH]cc(CCc3ccc(C(=O)N[C@@H](CCC(=O)O)C(=O)O)cc3)c2c(=O)[nH]1 [Pemetrexed] (partner 0.2 µM)
TEST SYSTEM: NCI-H1650
relative viability: 0.409

COMPOUND: Cc1cn(-c2cc(NC(=O)c3ccc(C)c(Nc4nccc(-c5cccnc5)n4)c3)cc(C(F)(F)F)c2)cn1 [Nilotinib] + C[C@@H](Oc1cc(-c2cnn(C3CCNCC3)c2)cnc1N)c1c(Cl)ccc(F)c1Cl [Crizotinib] (partner 1 µM)
TEST SYSTEM: NCI-H1650
relative viability: 1.07

COMPOUND: Cc1cn(-c2cc(NC(=O)c3ccc(C)c(Nc4nccc(-c5cccnc5)n4)c3)cc(C(F)(F)F)c2)cn1 [Nilotinib] + CC(=O)c1c(C)c2cnc(Nc3ccc(N4CCNCC4)cn3)nc2n(C2CCCC2)c1=O [Palbociclib] (partner 0.5 µM)
TEST SYSTEM: NCI-H1650
relative viability: 0.329
